experiment_description: Drug concentration and pharmacokinetics in sciatic nerve after sciatic nerve block in rats
Type: in vivo, rat
measurement_context: male, rat; sciatic nerve; given as LL-1, sciatic nerve block; n = 5 per time point; mean ± SEM
measured_endpoint: Cmax
Record the result as number plus unit.

Give the measured Cmax of CCCCN1CCCC[C@H]1C(=O)Nc1c(C)cccc1C [Levobupivacaine, levobupivacaine] .
430000 ng/g

###

experiment_description: Plasma pharmacokinetics after sciatic nerve block in rats
Assay type: in vivo, rat
measurement_context: both sexes, rat; plasma; given as LL-1, sciatic nerve block; n = 10; mean ± SEM
measured_endpoint: half-life

Give the measured half-life of CCCCN1CCCC[C@H]1C(=O)Nc1c(C)cccc1C .
4.89 h

###

experiment_description: Drug concentration and pharmacokinetics in sciatic nerve after sciatic nerve block in rats
Assay type: in vivo, rat
measurement_context: male, rat; sciatic nerve; given as LL-1, sciatic nerve block; n = 5 per time point; mean ± SEM
Protocol: In brief, rats were anesthetized by inhaling 1%–2% isoflurane mixed with oxygen through an inhouse-made mask. Then, the rats were placed at right lateral position and inserted vertically using a 23-gauge injector at the middle of the line from the greater trochanter to ischial tuberosity ([Binshtok et al., 2007]; [Zhang et al., 2017b]). […] The parameters of pharmacokinetics were analyzed by DAS® (Drug and Statistics, version 3.2.1, China) using noncompartmental model. […]
measured_endpoint: half-life (h)
The answer is to be given in h; state only the numeric part.

Give the measured half-life of CCCCN1CCCC[C@H]1C(=O)Nc1c(C)cccc1C .
1.28

###

experiment_description: Drug concentration and pharmacokinetics in sciatic nerve after sciatic nerve block in rats
Assay type: in vivo, rat
measurement_context: male, rat; sciatic nerve; given as LL-1, sciatic nerve block; n = 5 per time point
measured_endpoint: Tmax
Record the result as number plus unit.

Give the measured Tmax of CCCCN1CCCC[C@H]1C(=O)Nc1c(C)cccc1C .
30 min

###

experiment_description: Drug concentration and pharmacokinetics in muscle near the injection site after sciatic nerve block in rats
Type: in vivo, rat
measurement_context: male, rat, muscle near the injection site; muscle; given as LL-1, sciatic nerve block; n = 5 per time point; mean ± SEM
measured_endpoint: Cmax (ng/g)
The answer is to be given in ng/g; state only the numeric part.

Give the measured Cmax of CCCCN1CCCC[C@H]1C(=O)Nc1c(C)cccc1C [Levobupivacaine, levobupivacaine] .
256000

###

experiment_description: Plasma pharmacokinetics after sciatic nerve block in rats
Format: in vivo, rat
measurement_context: rat; plasma; Levo-Bupi in combination with QX-314 (35 mM/10 mM), sciatic nerve block, n = 10; read-out: Tmax
measured_endpoint: Tmax (h)
The answer is to be given in h; state only the numeric part.

Give the measured Tmax of CCCCN1CCCC[C@H]1C(=O)Nc1c(C)cccc1C [Levobupivacaine, levobupivacaine] .
4

###

experiment_description: Plasma pharmacokinetics after sciatic nerve block in rats
Assay type: in vivo, rat
measurement_context: both sexes, rat, 200 μl; plasma; Levobupivacaine alone (single drug), sciatic nerve block; mean ± SEM
measured_endpoint: Vd/F

Give the measured Vd/F of CCCCN1CCCC[C@H]1C(=O)Nc1c(C)cccc1C [Levobupivacaine, levobupivacaine] .
4.81 L

###

experiment_description: Plasma pharmacokinetics after sciatic nerve block in rats
Assay type: in vivo, rat
measurement_context: both sexes, rat, 200 μl; plasma; Levobupivacaine alone (single drug), sciatic nerve block; mean ± SEM
measured_endpoint: AUC(0-inf) (ng·h/mL)
The answer is to be given in ng·h/mL; state only the numeric part.

Give the measured AUC(0-inf) of CCCCN1CCCC[C@H]1C(=O)Nc1c(C)cccc1C .
509
